// provenance: patent US8822449B2

Catalogue of molecules with associated pIC50
target desc: sodium-proton exchanger of subtype 3 (NHE3) (Homo sapiens, UniProt P48764)
Construct: expressed in transfected cells
Sequence (P48764 26-834, species assumed): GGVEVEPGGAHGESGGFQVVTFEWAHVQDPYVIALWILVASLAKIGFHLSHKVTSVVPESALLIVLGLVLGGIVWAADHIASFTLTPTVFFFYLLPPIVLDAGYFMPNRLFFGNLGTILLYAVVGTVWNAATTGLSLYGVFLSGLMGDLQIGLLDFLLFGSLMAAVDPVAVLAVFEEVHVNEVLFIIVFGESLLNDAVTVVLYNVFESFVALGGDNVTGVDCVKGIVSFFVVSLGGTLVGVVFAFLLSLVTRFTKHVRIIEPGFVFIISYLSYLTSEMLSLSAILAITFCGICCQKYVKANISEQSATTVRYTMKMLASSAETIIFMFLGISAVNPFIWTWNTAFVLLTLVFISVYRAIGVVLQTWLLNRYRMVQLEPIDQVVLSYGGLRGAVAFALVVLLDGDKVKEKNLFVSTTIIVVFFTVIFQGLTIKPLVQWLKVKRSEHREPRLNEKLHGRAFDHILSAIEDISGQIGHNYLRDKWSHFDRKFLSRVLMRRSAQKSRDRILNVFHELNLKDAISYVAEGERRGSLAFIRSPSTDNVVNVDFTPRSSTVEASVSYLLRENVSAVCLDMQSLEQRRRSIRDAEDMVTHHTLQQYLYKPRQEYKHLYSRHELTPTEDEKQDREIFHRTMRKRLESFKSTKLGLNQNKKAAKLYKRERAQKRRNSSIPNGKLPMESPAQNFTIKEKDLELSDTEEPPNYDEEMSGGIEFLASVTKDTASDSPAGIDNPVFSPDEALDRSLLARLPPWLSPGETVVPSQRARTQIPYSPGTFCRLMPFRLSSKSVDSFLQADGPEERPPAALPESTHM
assay text: Recovery of intracellular pH (pHi) after acidification in LAP1 cells stably expressing NHE3 (BCECF fluorescence, FLIPR)
Format: cell-based
test conditions: Activity range (inhibitory effect on NHE3), LAP1 cells stably expressing NHE3; pH recovery after acidification; range 1 is % inhibition at 10 μM
pIC50: −log10 of the molar value.

What reported pIC50 corresponds to CN(C)S(=O)(=O)c1ccc(O[C@H]2c3ccccc3C[C@@H]2N2CCCC2)c(Cl)c1 (racemic) on sodium-proton exchanger of subtype 3 (NHE3) (Homo sapiens, UniProt P48764)?
> 6.00

---
What reported pIC50 corresponds to CCN(CC)[C@@H]1Cc2ccccc2[C@H]1Oc1ccc(N2CCNCC2)cc1 (racemic) on sodium-proton exchanger of subtype 3 (NHE3) (Homo sapiens, UniProt P48764)?
5.00 to 6.00

What reported pIC50 corresponds to CN(C)S(=O)(=O)c1ccc(O[C@@H]2c3ccccc3C[C@H]2N2CCCC2)c(Cl)c1Cl (racemic) on sodium-proton exchanger of subtype 3 (NHE3) (Homo sapiens, UniProt P48764)?
> 6.00

What reported pIC50 corresponds to CCN(CC)C(=O)c1ccc(O[C@H]2c3ccccc3C[C@@H]2N2CCCC2)cc1 (racemic) on sodium-proton exchanger of subtype 3 (NHE3) (Homo sapiens, UniProt P48764)?
5.00 to 6.00

What reported pIC50 corresponds to Clc1cc(Cl)c2c(c1)[C@H](Oc1ccc(-n3cncn3)cc1)[C@@H](N1C[C@H]3CC[C@@H](C1)N3)C2 on sodium-proton exchanger of subtype 3 (NHE3) (Homo sapiens, UniProt P48764)?
5.00 to 6.00

What reported pIC50 corresponds to CC(=O)Nc1cccc(O[C@H]2c3cc(Cl)cc(Cl)c3C[C@@H]2N2C[C@H]3CC[C@@H](C2)N3)c1 on sodium-proton exchanger of subtype 3 (NHE3) (Homo sapiens, UniProt P48764)?
> 6.00

What reported pIC50 corresponds to Cc1nncn1-c1ccc(O[C@H]2c3ccccc3C[C@@H]2N2CCCC2)cc1 (racemic) on sodium-proton exchanger of subtype 3 (NHE3) (Homo sapiens, UniProt P48764)?
> 6.00

What reported pIC50 corresponds to N#Cc1ccc(O[C@H]2c3ccccc3C[C@@H]2N2CCCC2)cc1Cl (racemic) on sodium-proton exchanger of subtype 3 (NHE3) (Homo sapiens, UniProt P48764)?
5.00 to 6.00

What reported pIC50 corresponds to O=C1CCCN1c1cccc(O[C@H]2c3ccccc3C[C@@H]2N2CCCC2)c1 (racemic) on sodium-proton exchanger of subtype 3 (NHE3) (Homo sapiens, UniProt P48764)?
5.00 to 6.00
